- tested.target: T1, human GARP-proTGFβ1 complex (human, UniProt Q14392 20-627; P01137 30-390)
- T1 construct: also called hGARP-proTGFβ1; hGARP
- T1 sequence (Q14392 20-627, chain 1 of 2): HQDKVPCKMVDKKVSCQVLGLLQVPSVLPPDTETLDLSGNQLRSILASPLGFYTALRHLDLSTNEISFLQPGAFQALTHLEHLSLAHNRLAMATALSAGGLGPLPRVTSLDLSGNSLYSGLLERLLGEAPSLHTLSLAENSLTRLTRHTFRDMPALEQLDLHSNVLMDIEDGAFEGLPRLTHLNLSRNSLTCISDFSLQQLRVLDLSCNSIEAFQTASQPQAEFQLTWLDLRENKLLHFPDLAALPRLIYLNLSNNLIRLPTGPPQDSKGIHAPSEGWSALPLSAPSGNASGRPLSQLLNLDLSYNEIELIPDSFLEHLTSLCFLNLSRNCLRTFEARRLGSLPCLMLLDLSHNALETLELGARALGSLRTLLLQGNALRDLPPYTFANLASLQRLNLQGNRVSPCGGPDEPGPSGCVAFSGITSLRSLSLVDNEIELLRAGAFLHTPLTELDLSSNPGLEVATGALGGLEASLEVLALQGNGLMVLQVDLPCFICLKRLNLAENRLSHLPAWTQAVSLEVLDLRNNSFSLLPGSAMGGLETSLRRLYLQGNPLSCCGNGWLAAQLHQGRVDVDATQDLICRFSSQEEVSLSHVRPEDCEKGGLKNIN
- T1 sequence (P01137 30-390, chain 2 of 2): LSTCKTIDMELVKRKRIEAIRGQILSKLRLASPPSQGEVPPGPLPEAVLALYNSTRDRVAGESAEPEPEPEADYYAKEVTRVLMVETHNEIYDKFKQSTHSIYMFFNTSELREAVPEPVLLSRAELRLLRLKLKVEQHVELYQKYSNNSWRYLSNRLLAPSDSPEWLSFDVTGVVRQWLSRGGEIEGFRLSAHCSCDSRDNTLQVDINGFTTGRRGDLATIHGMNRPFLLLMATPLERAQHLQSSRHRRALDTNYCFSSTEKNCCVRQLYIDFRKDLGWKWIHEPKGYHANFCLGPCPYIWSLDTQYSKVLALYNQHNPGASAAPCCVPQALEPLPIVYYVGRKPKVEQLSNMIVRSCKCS
- test: BLI (Octet)
measured.quantity: Kd (nM)
Give the value, in units of nM, as a plain number.

Past entries and their recorded results:
Ab18 (antibody, V domains shown) VH: QVQLVESGGGVVQPGRSLRLSCAASGFTFSDYAMVWVRQAPGKGLEWVSAISGSGAATYFADSVKGRFTISRDNSKNTLYLQMNSLRAEDTAVYYCATVSSGHWDFDYWGQGTLVTVSS VL: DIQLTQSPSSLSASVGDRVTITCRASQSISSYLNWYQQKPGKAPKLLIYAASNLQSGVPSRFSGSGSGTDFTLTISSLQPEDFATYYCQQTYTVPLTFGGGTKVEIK :: 11.5
Ab24 (antibody, IgG4, V domains shown) VH: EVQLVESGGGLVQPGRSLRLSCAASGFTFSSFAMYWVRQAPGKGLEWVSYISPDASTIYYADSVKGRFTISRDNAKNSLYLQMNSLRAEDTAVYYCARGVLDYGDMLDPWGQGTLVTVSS VL: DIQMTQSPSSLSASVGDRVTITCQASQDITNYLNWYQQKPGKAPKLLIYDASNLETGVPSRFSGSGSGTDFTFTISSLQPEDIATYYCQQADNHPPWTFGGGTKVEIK :: 0.665

Lookup: Indicate its recorded Kd; the binder in question is Ab16 (antibody, V domains shown) VH: EVQLLESGGGLVQPGGSLRLSCAASGFTFSNYAMSWVRQAPGKGLEWVSAISGSGFTTYYADSVKGRFTISRDNSKNTLYLQMNSLRAEDTAVYYCARVSSGHWDFDYWGQGTLVTVSS VL: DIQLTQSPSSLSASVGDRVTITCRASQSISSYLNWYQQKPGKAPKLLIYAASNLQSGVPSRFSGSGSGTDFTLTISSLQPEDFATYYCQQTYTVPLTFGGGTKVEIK
Found: 4.16
